The reported measurements were obtained from patent US9403776B2.

Please provide measured melting point for the entries that follow.
Structures can show the parent of a compound that is named as a salt.

As a guide, the following entries are already answered.
compound="COc1ccc2c(c1)CN(C)CCC2c1ccccc1 (racemic) (as salt: fumarate)" readout_kind="melting point" result="171 to 173 °C"
compound="COc1ccc2c(c1)CN(C)CCC2c1ccc(Cl)cc1 (racemic) (as salt: hydrochloride) [Example 7]" readout_kind="melting point" result="152 to 153 °C"
compound="CN1CCC(c2ccccc2)c2ccc(F)cc2C1.O=C(O)/C=C\\C(=O)O (stereo not shown)" readout_kind="melting point" result="153 to 155 °C"
compound="CN1CCC(c2ccc3sccc3c2)c2ccc(-c3cncnc3)cc2C1.O=C(O)/C=C\\C(=O)O (single isomer, unassigned; (+))" readout_kind="melting point" result="111 to 117 °C"

Go through the list and state melting point for each entry.
1. COc1ccc2c(c1)CN(C)CCC2c1ccc2sccc2c1 (single isomer, unassigned; (+)) (as salt: maleate) [Example 52 (+)]
2. OCCN1CCC(c2ccccc2)c2ccc(N3CCOCC3)cc2C1 (single isomer, unassigned; (+)) (as salt: tartrate)
3. COc1ccc2c(c1)CN(C)CCC2c1ccc(O)c(F)c1 (stereo not shown) (as salt: maleate)

1: 92 to 96 °C; 2: 93 to 96 °C; 3: 50 to 54 °C

---

Counter-ions that a name gives are not always drawn.
Readout kind: melting point

compound="CN1CCC(c2ccccc2)c2ccc(-c3cncnc3)cc2C1 (single isomer, unassigned; (+)) (as salt: maleate) [Example 28]" result="93 to 96 °C"

Go through the list and state melting point for each entry.
1. CN1CCC(c2ccccc2)c2ccc(N3CCOCC3)cc2C1 (single isomer, unassigned; (+)) (as salt: maleate) [Example 34]
2. CN1CCC(c2ccc(Cl)cc2)c2ccc(-c3cnccn3)cc2C1 (single isomer, unassigned; (-)) (as salt: maleate) [Example 41 (−)]
3. CN1CCC(c2ccccc2)c2ccc(CN3CCOCC3)cc2C1 (single isomer, unassigned; (+)) (as salt: tartrate) [Example 22]

88 to 89 °C
82 to 84 °C
124 to 127 °C

Go through the list and state melting point for each entry.
1. COc1ccc2c(c1)CN(C)CCC2c1ccccc1Cl (racemic) (as salt: hydrochloride) [Example 10]
2. Cc1ccc(-c2ccc3c(c2)CN(C)CCC3c2ccc3sccc3c2)nn1.O=C(O)/C=C\C(=O)O (single isomer, unassigned; (+)) [Example 106]

129 to 132 °C
105 to 109 °C

---

Where a name gives a salt, the structure may show the parent alone.
Please provide measured melting point for the entries that follow.

molecule="CN1CCC(c2ccc(Cl)cc2)c2ccc(-c3ccc(N(C)C)nn3)cc2C1 (single isomer, unassigned) (as salt: maleate) [Example 45]" readout_kind="melting point" result="96 to 98 °C"
molecule="CN1CCC(c2ccc3sccc3c2)c2ccc(-c3cccnn3)cc2C1.O=C(O)/C=C\\C(=O)O (single isomer, unassigned; (+))" readout_kind="melting point" result="117 to 121 °C"

State the recorded melting point for this entry: CN1CCC(c2ccccc2)c2ccc(-c3cnccn3)cc2C1 (single isomer, unassigned; (+)) (as salt: maleate)
67 to 69 °C

---

Where a name gives a salt, the structure may show the parent alone.
Readout kind: melting point

compound="Cc1noc(C)c1-c1ccc2c(c1)CN(C)CCC2c1ccc(Cl)cc1 (single isomer, unassigned; (+)) (as salt: maleate) [Example 43]" result="196 to 198 °C"
compound="Cc1ccc(-c2ccc3c(c2)CN(C)CCC3c2ccc(F)cc2)nn1 (single isomer, unassigned; (+)) (as salt: maleate) [Example 89]" result="173 to 176 °C"
compound="COc1ccc2c(c1)CNCCC2c1ccccc1 (racemic) (as salt: maleate) [Example 53]" result="154 to 156 °C"

Go through the list and state melting point for each entry.
1. CN1CCC(c2ccccc2)c2ccc(-c3ccc(N(C)C)nn3)cc2C1 (single isomer, unassigned; (+)) (as salt: maleate) [Example 26]
2. COc1ccc2c(c1)CN(C)CCC2c1ccc(F)c(Cl)c1 (racemic) (as salt: hydrochloride) [Example 11]
3. COc1ccc2c(c1)CN(C(C)C)CCC2c1ccccc1 (racemic) (as salt: maleate) [Example 55]
4. COc1ccc(C2CCN(C)Cc3cc(OC)ccc32)cc1 (single isomer, unassigned; (-)) (as salt: hydrochloride) [Example 6 (−)]

1: 99 to 102 °C; 2: 167 to 169 °C; 3: 172 to 175 °C; 4: 193 to 194 °C

Go through the list and state melting point for each entry.
1. Cc1ccc2c(c1)CN(C)CCC2c1ccc(F)cc1 (single isomer, unassigned; (+)) (as salt: hydrochloride) [Example 16]
2. COc1ccc(C2CCN(C)Cc3cc(OC)ccc32)cc1 (racemic) (as salt: hydrochloride) [Example 5]
3. CCN1CCC(c2ccccc2)c2ccc(N3CCOCC3)cc2C1 (single isomer, unassigned; (+)) (as salt: maleate) [Example 57 (+)]
4. CN1CCC(c2ccccc2)c2ccc(N3CCN(c4ncccn4)CC3)cc2C1 (single isomer, unassigned; (+)) (as salt: tartrate) [Example 69]
5. COc1ccc2c(c1)CN(C)CCC2c1ccc(Cl)cc1 (single isomer, unassigned; (-)) (as salt: hydrochloride) [Example 8 (−)]

1: 243 to 244 °C; 2: 165 to 166 °C; 3: 64 to 66 °C; 4: 119 to 121 °C; 5: 210 to 211 °C
